# target.or.test.system: T1, ZFP SBS#1238 (synthetic)
# T1 chain: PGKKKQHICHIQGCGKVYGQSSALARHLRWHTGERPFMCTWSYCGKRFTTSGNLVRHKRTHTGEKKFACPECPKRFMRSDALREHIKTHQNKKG
# assay.comment: EMSA
# protocol.conditions: tags: MBP fusion
test.readout: pKd
// pKd here means minus log10 of the molar concentration (mol/L)

IN: Name the recorded pKd for CTGGATGTT (dsDNA) DNA 1: CTGGATGTT DNA 2: AACATCCAG .
OUT: 9.50
